Data credit: patent US10336746B1

experiment: Bi-directional Caco-2 permeability; type: in vitro ADME; conditions: human, Caco-2, Caco-2, AB direction; read-out: AB Recovery %
measurement_type: recovery at 90 min (%)

Consider the reported recovery at 90 min for these compounds:
[
  {
    "compound": "CC(C)NC(=O)O[C@H]1CC[C@H](c2ncc(-c3ccc(NC(=O)OC(C)C)cc3S(=O)(=O)NC(C)(C)C)s2)CC1",
    "measurement_type": "recovery at 90 min",
    "quantity_unit": "%",
    "result_number": 44.8
  },
  {
    "compound": "CC(C)OC(=O)N[C@H]1CC[C@H](c2ncc(-c3ccc(NC(=O)NCc4cccc(F)c4)cc3S(=O)(=O)NC(C)(C)C)s2)CC1",
    "measurement_type": "recovery at 90 min",
    "quantity_unit": "%",
    "result_number": 92
  },
  {
    "compound": "CC(C)NC(=O)O[C@H]1CC[C@H](c2ncc(-c3ccc(NC(=O)NCc4ccccc4)cc3S(=O)(=O)NC(C)(C)C)s2)CC1",
    "measurement_type": "recovery at 90 min",
    "quantity_unit": "%",
    "result_number": 58.6
  },
  {
    "compound": "CC(C)OC(=O)Nc1ccc(-c2cnc([C@H]3CC[C@H](NC(=O)OC(C)C)CO3)s2)c(S(=O)(=O)NC(C)(C)C)c1 [Ex. 60B]",
    "measurement_type": "recovery at 90 min",
    "quantity_unit": "%",
    "result_number": 51.2
  },
  {
    "compound": "C[C@H](NC(=O)Nc1ccc(-c2cnc(C3CCC(NC(=O)OC4COC4)CC3)s2)c(S(=O)(=O)NC(C)(C)C)c1)c1ccccc1 (stereo partly shown)",
    "measurement_type": "recovery at 90 min",
    "quantity_unit": "%",
    "result_number": 65
  }
]

(a) CC(C)OC(=O)N[C@H]1CC[C@H](c2nc(F)c(-c3ccc(NC(=O)NCc4ccccc4)cc3S(=O)(=O)NC(C)(C)C)s2)CC1
(b) CC(C)OC(=O)N[C@H]1CC[C@H](c2ncc(-c3ccc(NC(=O)OC[C@@H]4CCCN4C)cc3S(=O)(=O)NC(C)(C)C)s2)CC1
Could you determine which record has the numerically smaller recovery at 90 min? Candidates: a and b Write down the label attached to your selection.
a
(a: 61.9%, b: 98.8%)

* * *

Assay: Bi-directional Caco-2 permeability
Format: in vitro ADME
Conditions: human; Caco-2, basolateral to apical, 37 C, up to 90 minutes; read-out: BA Papp (cm/sec × 10^6)
Method: Bi-directional Caco-2 permeability was assayed. Caco-2 cells were seeded onto permeable polycarbonate supports and allowed to differentiate for about 3 weeks prior to being used in the assays. The cells were then exposed to the compounds from either the apical or basolateral sides and incubated at 37 C for up to 90 minutes under light agitation. Compound transport was then measured using LC/MS/MS analysis at 30, 60, and 90 minutes.
measurement_type: Papp B→A at 90 min (×10⁻⁶ cm/s)

In the examples that follow, each entry is paired with its recorded Papp B→A at 90 min.
[
  {
    "molecule": "CC(C)OC(=O)Nc1ccc(-c2cnc(C3CCC(NC(=O)OC4COC4)CC3)s2)c(S(=O)(=O)NC(C)(C)C)c1 (stereo not shown)",
    "quantity_unit": "×10⁻⁶ cm/s",
    "Papp B→A at 90 min": 16
  },
  {
    "molecule": "CC(C)OC(=O)Nc1ccc(-c2cnc([C@H]3CC[C@H](NC(=O)OC(C)(C)C)CC3)s2)c(S(=O)(=O)NC(C)(C)C)c1",
    "quantity_unit": "×10⁻⁶ cm/s",
    "Papp B→A at 90 min": 4.2
  },
  {
    "molecule": "CC(C)OC(=O)N[C@H]1CC[C@H](c2ncc(-c3ccc(NC(=O)NCc4ccccc4)cc3S(=O)(=O)NC(C)(C)C)s2)CC1 [Ex. 66A]",
    "quantity_unit": "×10⁻⁶ cm/s",
    "Papp B→A at 90 min": 3.9
  },
  {
    "molecule": "C[C@@H](NC(=O)Nc1ccc(-c2cnc(C3CCC(NC(=O)OC4COC4)CC3)s2)c(S(=O)(=O)NC(C)(C)C)c1)c1ccccc1 (stereo partly shown)",
    "quantity_unit": "×10⁻⁶ cm/s",
    "Papp B→A at 90 min": 10.9
  },
  {
    "molecule": "CC(C)OC(=O)N[C@@H]1CC[C@@H](c2ncc(-c3ccc(NC(=O)NCc4ccccc4)cc3S(=O)(=O)NC(C)(C)C)s2)OC1 [Ex. 59A]",
    "quantity_unit": "×10⁻⁶ cm/s",
    "Papp B→A at 90 min": 9.6
  }
]

(P) C[C@H](NC(=O)Nc1ccc(-c2cnc(C3CCC(NC(=O)OC4COC4)CC3)s2)c(S(=O)(=O)NC(C)(C)C)c1)c1ccccc1 (stereo partly shown)
(Q) CC(C)OC(=O)N[C@H]1CC[C@H](c2ncc(-c3ccc(NC(=O)OC[C@H]4CCCN4C)cc3S(=O)(=O)NC(C)(C)C)s2)CC1
When their Papp B→A at 90 min values are compared, which is larger, P or Q ? # reply format: chosen label
Q
(Q: 45.2 ×10⁻⁶ cm/s, P: 10.5 ×10⁻⁶ cm/s)
